Reported pIC50 is given for each of the following compounds.
System: OCI-Ly-7
procedure details: In vitro cell proliferation assay (WST.1, Table 5)
Format: cell-based
cond: Homo sapiens, OCI-Ly7, 72 h; OCI-Ly-7, day 3
pIC50: −log10 of the molar value.

{"columns": ["compound", "pIC50"],
 "data": [
  ["O=C1C/C(=N\\O)N(C2OC(CO)C(O)C2O)C(=O)N1 (stereo not shown)", "< 4.30"],
  ["[N-]=[N+]=Nc1cc(=O)[nH]c(=O)n1[C@@H]1O[C@H](CO)C(O)C1O (stereo partly shown)", "< 4.30"],
  ["Cc1cc(=O)[nH]c(=O)n1C1OC(CO)C(O)C1O (stereo not shown)", "< 4.30"],
  ["CCc1c(F)c(=O)[nH]c(=O)n1C1OC(CO)C(O)C1O (stereo not shown)", 5.72],
  ["O=c1[nH]c(=O)n([C@@H]2O[C@H](CO)C(O)C2O)c(I)c1Br (stereo partly shown)", "< 4.30"]
]}

Prompt: Read the entry CCOC(=O)c1cc(=O)[nH]c(=O)n1[C@@H]1O[C@H](CO)C(O)C1O (stereo partly shown) and write its reported pIC50.
Response: < 4.30

Prompt: Please give the documented pIC50 of Nc1cc(=O)[nH]c(=O)n1[C@@H]1O[C@H](CO)C(O)C1O (stereo partly shown)
Response: < 4.30

###

Test system: OCI AML1
procedure details: WST-1 cell growth assay (Table 3)
Assay type: cell-based
cond: Homo sapiens, 72 h; OCI AML1 myloid leukemia, 3 days
measurement type: IC50 (nM)
Report as a plain number; the unit nM is understood.

{"columns": ["structure", "assay system", "IC50 [nM]"],
 "data": [
  ["Nc1cc(=O)[nH]c(=O)n1[C@@H]1O[C@H](CO)[C@@H](O)[C@H]1O", "OCI AML1", 800]
]}

Consider the record given below.
Prompt: Specify the recorded IC50 for [N-]=[N+]=Nc1cc(=O)[nH]c(=O)n1[C@@H]1O[C@H](CO)[C@@H](O)[C@H]1O , system: OCI AML1.
Response: 700

###

Test system: COLO205
procedure details: In vitro cell proliferation assay (WST.1, Table 5)
Format: cell-based
cond: Homo sapiens, COLO 205, 72 h; COLO205, day 3
pIC50: −log10 of the molar value.
# pIC50 annotations

Example entries begin here.
{"columns": ["compound", "pIC50"],
 "data": [
  ["CCOC(=O)c1cc(=O)[nH]c(=O)n1[C@@H]1O[C@H](CO)C(O)C1O (stereo partly drawn)", "< 4.30"],
  ["[N-]=[N+]=Nc1cc(=O)[nH]c(=O)n1[C@@H]1O[C@H](CO)C(O)C1O (stereo partly drawn)", "< 4.30"],
  ["N#Cc1cc(=O)[nH]c(=O)n1[C@@H]1O[C@H](CO)C(O)C1O (stereo partly drawn)", "< 4.30"]
]}

Prompt: State the measured pIC50 (COLO205) of Nc1cc(=O)[nH]c(=O)n1[C@@H]1O[C@H](CO)C(O)C1O (stereo partly drawn)
Response: < 4.30

Prompt: Using COLO205 as the test system, report measured pIC50 of O=c1cc(I)n([C@@H]2O[C@H](CO)C(O)C2O)c(=O)[nH]1 (stereo partly drawn) .
Response: < 4.30

Prompt: Print COLO205 pIC50 for CN(C)c1cc(=O)[nH]c(=O)n1C1OC(CO)C(O)C1O (stereo not drawn) .
Response: < 4.30

Prompt: Send back COLO205 pIC50 of [N-]=[N+]=Nc1c(F)c(=O)[nH]c(=O)n1[C@@H]1O[C@H](CO)[C@@H](O)[C@H]1O only.
Response: 5.42

Prompt: Report its pIC50 with COLO205 as the test system: CNc1cc(=O)[nH]c(=O)n1C1OC(CO)C(O)C1O (stereo not drawn)
Response: < 4.30
